Could you please report measured % Hemmung for the items listed next?
Tested on: Glucose-6-Phosphatase-System
method: Glucose-6-phosphatase enzyme test in liver microsomes (phosphate released from glucose-6-phosphate)
Format: biochemical, Wistar-Ratten
appliedConditions: Inhibitorkonzentration 100 µM; Glucose-6-Phosphat 1 mMol/l, 0,1 mg Mikrosomen-Fraktion, pH 7,0, 20 min, room temperature
The response must be a number in % with no trailing unit.

I am curious: what % Hemmung value has been reported for O=C(Nc1ccc(-c2ccco2)c(C(=O)O)c1)c1cnc2ccccc2n1 [Beispiel 15] ?
63

I'd like to know its % Hemmung. The compound in question is COc1ccc2cc(-c3ccc(NC(=O)C4CC4)cc3C(=O)O)ccc2c1 [Beispiel 5]
51

Look up % Hemmung for this compound: O=C(Nc1ccc(-c2cccs2)c(C(=O)O)c1)c1ccc2ccccc2c1 [Beispiel 13]
53

Tell me the measured % Hemmung of CC(C)(C)c1ccc(-c2ccc(NC(=O)C3CCCC3)cc2C(=O)O)cc1 [Beispiel 17] , please.
53

May I ask what % Hemmung has been recorded for O=C(C=Cc1ccccc1)Nc1ccc(-c2ccc(Cl)s2)c(C(=O)O)c1 [Beispiel 11] ?
57

What measured % Hemmung goes with COc1ccc2cc(-c3ccc(NC(=O)c4cccc(F)c4)cc3C(=O)O)ccc2c1 [Beispiel 8] ?
77

Param item = CC(C)(C)c1ccc(-c2ccc(NC(=O)COc3ccccc3)cc2C(=O)O)cc1 [Beispiel 16] ; retrieve measured % Hemmung.
50

Need % Hemmung of COc1ccc(OC)c(CC(=O)Nc2ccc(-c3ccc4cc(OC)ccc4c3)c(C(=O)O)c2)c1 [Beispiel 7] , thanks.
63

// returns reported % Hemmung for input O=C(CCCc1ccc(Cl)cc1)Nc1ccc(-c2ccc(Cl)s2)c(C(=O)O)c1 [Beispiel 10]
62

====

Tested on: Glucose-6-Phosphatase-System
method: Glucose-6-phosphatase enzyme test in liver microsomes (phosphate released from glucose-6-phosphate)
Format: biochemical, Wistar-Ratten
appliedConditions: Inhibitorkonzentration 12,5 µM; Glucose-6-Phosphat 1 mMol/l, 0,1 mg Mikrosomen-Fraktion, pH 7,0, 20 min, room temperature; 12.5 µM
Text: Die Wirkung der erfindungsgemäßen Verbindungen auf das Glucose-6-Phosphatase-System wurde in einem Enzymtest in Lebermikrosomen untersucht. Für die Präparation der die Glucose-6-Phosphatase enthaltenden Mikrosomen-Fraktion wurden frische Leber-Organe von männlichen Wistar-Ratten verwendet und wie in der Literatur beschrieben aufgearbeitet [Canfield, W. K. Und Arion, W.J., J. Biol. Chem. 263, 7458-7460, (1988)]. […]
measurementName: % Hemmung (%)
Answer with a number only, understood to be in %.

Would you mind telling me what % Hemmung value was observed for `COc1ccc(C(=O)Nc2ccc(C#Cc3ccc(C)cc3)c(C(=O)O)c2)c(OC)c1` ?
52

What does the record list as % Hemmung for `COc1cccc(C(=O)Nc2ccc(C#Cc3ccc(C)cc3)c(C(=O)O)c2)c1` ?
78

Which % Hemmung is listed for `COc1ccc(C(=O)Nc2ccc(C#Cc3ccc(C)cc3)c(C(=O)O)c2)cc1OC` ?
61

Please report the recorded % Hemmung for `Cc1ccc(C#Cc2ccc(NC(=O)c3cc(C(F)(F)F)cc(C(F)(F)F)c3)cc2C(=O)O)cc1` .
77

Consider the compound `Cc1ccc(C#Cc2ccc(NC(=O)c3cccc4ccccc34)cc2C(=O)O)cc1` and give its measured % Hemmung.
60

Entry under review: `O=C(Nc1ccc(C#Cc2ccccc2)c(C(=O)O)c1)c1cccc(F)c1` . Reported % Hemmung?
100

// query % Hemmung value for entry `Cc1ccc(C#Cc2ccc(NC(=O)CCC3CCCC3)cc2C(=O)O)cc1`
76

// lookup % Hemmung for `Cc1ccc(C#Cc2ccc(NC(=O)c3cnc4ccccc4n3)cc2C(=O)O)cc1`
73

Sample `Cc1ccc(C#Cc2ccc(NS(=O)(=O)c3ccc([N+](=O)[O-])cc3)cc2C(=O)O)cc1` — what was its % Hemmung?
62

Which % Hemmung value belongs to `O=C(Nc1ccc(C#Cc2ccccc2)c(C(=O)O)c1)c1ccccc1Cl` ?
100

What % Hemmung value was documented for this compound, `COc1cc(OC)cc(C(=O)Nc2ccc(C#Cc3ccc(C)cc3)c(C(=O)O)c2)c1` ?
64

Using the record for `CC(C)(O)C(=O)Nc1ccc(C#Cc2ccccc2)c(C(=O)O)c1` , report its % Hemmung.
60

Quick one: % Hemmung for `Cc1ccc(C#Cc2ccc(NC(=O)c3cccc(Cl)c3)cc2C(=O)O)cc1` ?
55

GET /values?readout=% Hemmung&item= `COc1cccc(C(=O)Nc2ccc(C#Cc3ccccc3)c(C(=O)O)c2)c1`
98

Please report the recorded % Hemmung for `O=C(Nc1ccc(C#Cc2ccccc2)c(C(=O)O)c1)c1cccc(C(F)(F)F)c1` .
63

GET /values?readout=% Hemmung&item= `O=C(Nc1ccc(C#Cc2ccccc2)c(C(=O)O)c1)c1cccc([N+](=O)[O-])c1`
51

Tell me the measured % Hemmung of `Cc1ccc(C#Cc2ccc(NC(=O)c3ccccc3O)cc2C(=O)O)cc1` , please.
55

For the compound shown here, `Cc1ccc(C#Cc2ccc(NC(=O)C(F)(F)C(F)(F)C(F)(F)F)cc2C(=O)O)cc1` , give the reported % Hemmung.
71

# query: % Hemmung of entry `N#Cc1cccc(C(=O)Nc2ccc(C#Cc3ccccc3)c(C(=O)O)c2)c1`
98

Look up % Hemmung for this compound: `CC(C)(C)CC(=O)Nc1ccc(C#Cc2ccccc2)c(C(=O)O)c1`
58

Endpoint output: % Hemmung of `O=C(O)c1cc(NC(=O)C2CCCCC2)ccc1C#Cc1ccccc1` . Value?
58

State the recorded % Hemmung for this entry: `O=C(Nc1ccc(C#Cc2ccccc2)c(C(=O)O)c1)c1ccc(Cl)cc1Cl`
84
